test system: 556581-035-R-J1-PDC complex spheroid growth; assay: Anticancer human tumor 556581-035-R-J1-PDC patient-derived ovarian carcinoma cell line growth inhibition [AhR]; settings: second compound 0.316 µM; first compound 0.1 µM; stronger effect = lower value
measure: viability, T/C

Worked cases, answers included:
NS(=O)(=O)OCC1CC(n2ccc3c(NC4CCc5ccccc54)ncnc32)CC1O (configuration not stated) + CC(CO)NC(=O)c1cc(-c2ccc(Cl)cc2)nn(-c2cnn(C)c2)c1=O :: 121%
Nc1ncn(C2CC(O)C(CO)O2)c(=O)n1 (configuration not stated) + Cc1ccccc1N=Nc1ccc(NC(=O)c2ccnn2C)c(C)c1 :: 89.6%

Reported viability, T/C for COc1cccc2c1C(=O)c1c(O)c3c(c(O)c1C2=O)CC(O)(C(=O)CO)CC3OC1CC(N)C(O)C(C)O1 (configuration not stated) + Cc1ccccc1N=Nc1ccc(NC(=O)c2ccnn2C)c(C)c1 was 77.9%

Reported viability, T/C for Nc1ccccc1NC(=O)c1ccc(CNC(=O)OCc2cccnc2)cc1 + CC(CO)NC(=O)c1cc(-c2ccc(Cl)cc2)nn(-c2cnn(C)c2)c1=O was 91%

Reported viability, T/C for Cn1ncnc1C1c2n[nH]c(=O)c3cc(F)cc(c23)NC1c1ccc(F)cc1 (configuration not stated) + Cc1ccccc1N=Nc1ccc(NC(=O)c2ccnn2C)c(C)c1 was 94.3%

Reported viability, T/C for O=C(C=Cc1cccc(S(=O)(=O)Nc2ccccc2)c1)NO + Cc1cncc(-c2nc(NCCc3c[nH]c4ccccc34)c3ncn(C(C)C)c3n2)c1 was 104%

---

IC50 for assorted compounds
system: 556581-035-R-J1-PDC complex spheroid growth; experiment: Anticancer human tumor 556581-035-R-J1-PDC cell line growth inhibition [AhR]; details: curve of first compound; second compound 3.16 µM
Only the number, expressed in µM, is required.

CC(C)CC(NC(=O)C(Cc1ccccc1)NC(=O)c1cnccn1)B(O)O (stereo not drawn) + Cc1cncc(-c2nc(NCCc3c[nH]c4ccccc34)c3ncn(C(C)C)c3n2)c1 :: 0.00593

Please find the next compound below.
Reported IC50 for COc1cc(C2c3cc4c(cc3C(OC3OC5COC(C)OC5C(O)C3O)C3COC(=O)C23)OCO4)cc(OC)c1O (stereo not drawn) + Cc1cncc(-c2nc(NCCc3c[nH]c4ccccc34)c3ncn(C(C)C)c3n2)c1 was 7

---

Tested on: 556581-035-R-J1-PDC complex spheroid growth
Experiment: Anticancer human tumor 556581-035-R-J1-PDC cell line growth inhibition [AhR];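 for viability, T/C: compound exposure lasted 7 days; 100% = DMSO vehicle control growth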
Conditions: second compound 0.316 µM; first compound 1 µM; stronger effect = lower value
Description: Multicellular complex tumor spheroid response to aryl hydrocarbon receptor antagonists in combination with a variety of drugs and investigational agents in selected tumor cell lines […] Compounds. […] If the clinical Cmax for an agent had not been determined, the highest concentration tested was 10 microM (Table 1). […]
measure: viability, T/C

Reported viability, T/C for CC1COCCN1c1cc(-c2ccnn2C)c2ccnc(-c3ccn[nH]3)c2n1 (centres undefined) + Cc1cncc(-c2nc(NCCc3c[nH]c4ccccc34)c3ncn(C(C)C)c3n2)c1 was 41.9%

---

IC50 for assorted molecules
system: 556581-035-R-J1-PDC complex spheroid growth; assay: Anticancer human tumor 556581-035-R-J1-PDC cell line growth inhibition [AhR]; details: curve of first compound; second compound 3.16 µM

Worked cases, answers included:
Nc1ncn(C2CC(O)C(CO)O2)c(=O)n1 (stereo not drawn) + CC(CO)NC(=O)c1cc(-c2ccc(Cl)cc2)nn(-c2cnn(C)c2)c1=O :: > 1000 nM
CC[C@@]1(O)C(=O)OCc2c1cc1n(c2=O)Cc2cc3c(CN(C)C)c(O)ccc3nc2-1 + CC(CO)NC(=O)c1cc(-c2ccc(Cl)cc2)nn(-c2cnn(C)c2)c1=O :: 87.8 nM

Reported IC50 for COc1cc(C2c3cc4c(cc3C(OC3OC5COC(C)OC5C(O)C3O)C3COC(=O)C23)OCO4)cc(OC)c1O (stereo not drawn) + Cc1ccccc1N=Nc1ccc(NC(=O)c2ccnn2C)c(C)c1 was > 10000 nM

---

system: 556581-035-R-J1-PDC complex spheroid growth; assay: Anticancer human tumor 556581-035-R-J1-PDC cell line growth inhibition [AhR]; conditions: second compound 3.16 µM; first compound 0.01 µM; stronger effect = lower value;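 for viability, T/C: compound exposure lasted 7 days; 100% = DMSO vehicle control growth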
measure: viability, T/C (%)
Only the number, expressed in %, is required.

CC[C@@]1(O)C(=O)OCc2c1cc1n(c2=O)Cc2cc3c(CN(C)C)c(O)ccc3nc2-1 + Cc1cncc(-c2nc(NCCc3c[nH]c4ccccc34)c3ncn(C(C)C)c3n2)c1 :: 101
Cn1ncnc1C1c2n[nH]c(=O)c3cc(F)cc(c23)NC1c1ccc(F)cc1 (configuration not stated) + Cc1ccccc1N=Nc1ccc(NC(=O)c2ccnn2C)c(C)c1 :: 96.5
CC1COCCN1c1cc(-c2ccnn2C)c2ccnc(-c3ccn[nH]3)c2n1 (configuration not stated) + Cc1ccccc1N=Nc1ccc(NC(=O)c2ccnn2C)c(C)c1 :: 103

Please find the next molecule below.
Reported viability, T/C for CC1COCCN1c1cc(-c2ccnn2C)c2ccnc(-c3ccn[nH]3)c2n1 (configuration not stated) + CC(CO)NC(=O)c1cc(-c2ccc(Cl)cc2)nn(-c2cnn(C)c2)c1=O was 130

---

tested on: 556581-035-R-J1-PDC complex spheroid growth; assay: Anticancer human tumor 556581-035-R-J1-PDC cell line growth inhibition [AhR]; settings: second compound 0.316 µM; first compound 3.16 µM; stronger effect = lower value;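 for viability, T/C: compound exposure lasted 7 days; 100% = DMSO vehicle control growth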
measure: viability, T/C (%)
Only the number, expressed in %, is required.

Worked cases, answers included:
COc1cc(C2c3cc4c(cc3C(OC3OC5COC(C)OC5C(O)C3O)C3COC(=O)C23)OCO4)cc(OC)c1O (stereo not drawn) + CC(CO)NC(=O)c1cc(-c2ccc(Cl)cc2)nn(-c2cnn(C)c2)c1=O :: 72.8
CC(C)c1c(-c2ccccc2)nc2c(C#N)c[nH]n2c1=O + Cc1ccccc1N=Nc1ccc(NC(=O)c2ccnn2C)c(C)c1 :: 85.5

Please find the next compound below.
Reported viability, T/C for Nc1ccccc1NC(=O)c1ccc(CNC(=O)OCc2cccnc2)cc1 + Cc1ccccc1N=Nc1ccc(NC(=O)c2ccnn2C)c(C)c1 was 41.1

---

system: 556581-035-R-J1-PDC complex spheroid growth; experiment: Anticancer human tumor 556581-035-R-J1-PDC cell line growth inhibition [AhR]; conditions: second compound 3.16 µM; first compound 0.00316 µM; stronger effect = lower value;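 for viability, T/C: compound exposure lasted 7 days; 100% = DMSO vehicle control growth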
measure: viability, T/C (%)
Only the number, expressed in %, is required.

Worked cases, answers included:
Cn1ncnc1C1c2n[nH]c(=O)c3cc(F)cc(c23)NC1c1ccc(F)cc1 (stereo not drawn) + Cc1ccccc1N=Nc1ccc(NC(=O)c2ccnn2C)c(C)c1 :: 94.6
CC[C@@]1(O)C(=O)OCc2c1cc1n(c2=O)Cc2cc3c(CN(C)C)c(O)ccc3nc2-1 + Cc1cncc(-c2nc(NCCc3c[nH]c4ccccc34)c3ncn(C(C)C)c3n2)c1 :: 104

Please find the next molecule below.
Reported viability, T/C for CC[C@@]1(O)C(=O)OCc2c1cc1n(c2=O)Cc2cc3c(CN(C)C)c(O)ccc3nc2-1 + Cc1ccccc1N=Nc1ccc(NC(=O)c2ccnn2C)c(C)c1 was 83.4

---

system: 556581-035-R-J1-PDC complex spheroid growth; test: Anticancer human tumor 556581-035-R-J1-PDC cell line growth inhibition [AhR]; settings: second compound 1 µM; first compound 0.00316 µM; stronger effect = lower value;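 for viability, T/C: compound exposure lasted 7 days; 100% = DMSO vehicle control growth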
viability, T/C for assorted compounds

Worked cases, answers included:
CC1COCCN1c1cc(-c2ccnn2C)c2ccnc(-c3ccn[nH]3)c2n1 (stereo unspecified) + Cc1ccccc1N=Nc1ccc(NC(=O)c2ccnn2C)c(C)c1 :: 99.6%
CC1COCCN1c1cc(-c2ccnn2C)c2ccnc(-c3ccn[nH]3)c2n1 (stereo unspecified) + CC(CO)NC(=O)c1cc(-c2ccc(Cl)cc2)nn(-c2cnn(C)c2)c1=O :: 118%
Nc1ncn(C2CC(O)C(CO)O2)c(=O)n1 (stereo unspecified) + Cc1cncc(-c2nc(NCCc3c[nH]c4ccccc34)c3ncn(C(C)C)c3n2)c1 :: 91.4%
Cn1ncnc1C1c2n[nH]c(=O)c3cc(F)cc(c23)NC1c1ccc(F)cc1 (stereo unspecified) + Cc1ccccc1N=Nc1ccc(NC(=O)c2ccnn2C)c(C)c1 :: 109%
CC1COCCN1c1cc(-c2ccnn2C)c2ccnc(-c3ccn[nH]3)c2n1 (stereo unspecified) + Cc1cncc(-c2nc(NCCc3c[nH]c4ccccc34)c3ncn(C(C)C)c3n2)c1 :: 100%

Please find the next compound below.
Reported viability, T/C for CC[C@@]1(O)C(=O)OCc2c1cc1n(c2=O)Cc2cc3c(CN(C)C)c(O)ccc3nc2-1 + Cc1cncc(-c2nc(NCCc3c[nH]c4ccccc34)c3ncn(C(C)C)c3n2)c1 was 105%

---

tested on: 556581-035-R-J1-PDC complex spheroid growth; experiment: Anticancer human tumor 556581-035-R-J1-PDC cell line growth inhibition [AhR]; conditions: second compound 1 µM; first compound 10 µM; stronger effect = lower value;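 for viability, T/C: compound exposure lasted 7 days; 100% = DMSO vehicle control growth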
measure: viability, T/C (%)
Only the number, expressed in %, is required.

COc1ccc([C@@H](O)c2cc(-c3ncnc4cc(N5CCOCC5)ccc34)c(F)cc2Cl)nn1 + Cc1ccccc1N=Nc1ccc(NC(=O)c2ccnn2C)c(C)c1 :: 47.1
CC(C)c1c(-c2ccccc2)nc2c(C#N)c[nH]n2c1=O + CC(CO)NC(=O)c1cc(-c2ccc(Cl)cc2)nn(-c2cnn(C)c2)c1=O :: 95.8

Please find the next molecule below.
Reported viability, T/C for O=C(c1cc(Cc2n[nH]c(=O)c3ccccc23)ccc1F)N1CCN(C(=O)C2CC2)CC1 + Cc1ccccc1N=Nc1ccc(NC(=O)c2ccnn2C)c(C)c1 was 76.6
